Biological target: feline FcRn complex (FcRn-α subunit and β-microglobulin), biotin labeled (feline)
Assay: SPR, pH 6
pKd: −log10 of the molar value.
Rule: 1 for pKd not less than 7, 0 for anything less.

// below: answered binders
- BINDER: "feline IgG1a S252Y/S434W/Q311W (antibody, part only; not given: Variable domains, not shown: another chain or arm of the molecule) constant: ASTTAPSVFPLAPSCGTTSGATVALACLVLGYFPEPVTVSWNSGALTSGVHTFPAVLQASGLYSLSSMVTVPSSRWLSDTFTCNVAHPPSNTKVDKTVRKTDHPPGPKPCDCPKCPPPEMLGGPSIFIFPPKPKDTLYISRTPEVTCLVVDLGPDDSDVQITWFVDNTQVYTAKTSPREEQFNSTYRVVSVLPILHWDWLKGKEFKCKVNSKSLPSPIERTISKAKGQPHEPQVYVLPPAQEELSRNKVSVTCLIKSFHPPDIAVEWEITGQPEPENNYRTTPPQLDSDGTYFVYSKLSVDRSHWQRGNTYTCSVSHEALHWHHTQKSLTQSPGK"
  CLASS: 1
- BINDER: "feline IgG1a S428Y/S434Y (antibody, part only; not given: Variable domains, not shown: another chain or arm of the molecule) constant: ASTTAPSVFPLAPSCGTTSGATVALACLVLGYFPEPVTVSWNSGALTSGVHTFPAVLQASGLYSLSSMVTVPSSRWLSDTFTCNVAHPPSNTKVDKTVRKTDHPPGPKPCDCPKCPPPEMLGGPSIFIFPPKPKDTLSISRTPEVTCLVVDLGPDDSDVQITWFVDNTQVYTAKTSPREEQFNSTYRVVSVLPILHQDWLKGKEFKCKVNSKSLPSPIERTISKAKGQPHEPQVYVLPPAQEELSRNKVSVTCLIKSFHPPDIAVEWEITGQPEPENNYRTTPPQLDSDGTYFVYSKLSVDRSHWQRGNTYTCSVYHEALHYHHTQKSLTQSPGK"
  CLASS: 1
- BINDER: "feline IgG1a S428Y/D312P/S434Y (antibody, part only; not given: Variable domains, not shown: another chain or arm of the molecule; small tags and cut ends) constant: ASTTAPSVFPLAPSCGTTSGATVALACLVLGYFPEPVTVSWNSGALTSGVHTFPAVLQASGLYSLSSMVTVPSSRWLSDTFTCNVAHPPSNTKVDKTVRKTDHPPGPKPCDCPKCPPPEMLGGPSIFIFPPKPKDTLSISRTPEVTCLVVDLGPDDSDVQITWFVDNTQVYTAKTSPREEQFNSTYRVVSVLPILHQPWLKGKEFKCKVNSKSLPSPIERTISKAKGQPHEPQVYVLPPAQEELSRNKVSVTCLIKSFHPPDIAVEWEITGQPEPENNYRTTPPQLDSDGTYFVYSKLSVDRSHWQRGNTYTCSVYHEALHYHHTQKSLTQSPGK"
  CLASS: 1
- BINDER: "feline IgG1a S254H (antibody, part only; not given: Variable domains, not shown: another chain or arm of the molecule) constant: ASTTAPSVFPLAPSCGTTSGATVALACLVLGYFPEPVTVSWNSGALTSGVHTFPAVLQASGLYSLSSMVTVPSSRWLSDTFTCNVAHPPSNTKVDKTVRKTDHPPGPKPCDCPKCPPPEMLGGPSIFIFPPKPKDTLSIHRTPEVTCLVVDLGPDDSDVQITWFVDNTQVYTAKTSPREEQFNSTYRVVSVLPILHQDWLKGKEFKCKVNSKSLPSPIERTISKAKGQPHEPQVYVLPPAQEELSRNKVSVTCLIKSFHPPDIAVEWEITGQPEPENNYRTTPPQLDSDGTYFVYSKLSVDRSHWQRGNTYTCSVSHEALHSHHTQKSLTQSPGK"
  CLASS: 0

Query string: In plain terms: is recorded pKd at least 7 for feline IgG1a S252H/S428M/S434W (antibody, part only; not given: Variable domains, not shown: another chain or arm of the molecule) constant: ASTTAPSVFPLAPSCGTTSGATVALACLVLGYFPEPVTVSWNSGALTSGVHTFPAVLQASGLYSLSSMVTVPSSRWLSDTFTCNVAHPPSNTKVDKTVRKTDHPPGPKPCDCPKCPPPEMLGGPSIFIFPPKPKDTLHISRTPEVTCLVVDLGPDDSDVQITWFVDNTQVYTAKTSPREEQFNSTYRVVSVLPILHQDWLKGKEFKCKVNSKSLPSPIERTISKAKGQPHEPQVYVLPPAQEELSRNKVSVTCLIKSFHPPDIAVEWEITGQPEPENNYRTTPPQLDSDGTYFVYSKLSVDRSHWQRGNTYTCSVMHEALHWHHTQKSLTQSPGK ?
Result string: 1

Query string: In plain terms: is recorded pKd at least 7 for feline IgG1a S434V (antibody, part only; not given: Variable domains, not shown: another chain or arm of the molecule) constant: ASTTAPSVFPLAPSCGTTSGATVALACLVLGYFPEPVTVSWNSGALTSGVHTFPAVLQASGLYSLSSMVTVPSSRWLSDTFTCNVAHPPSNTKVDKTVRKTDHPPGPKPCDCPKCPPPEMLGGPSIFIFPPKPKDTLSISRTPEVTCLVVDLGPDDSDVQITWFVDNTQVYTAKTSPREEQFNSTYRVVSVLPILHQDWLKGKEFKCKVNSKSLPSPIERTISKAKGQPHEPQVYVLPPAQEELSRNKVSVTCLIKSFHPPDIAVEWEITGQPEPENNYRTTPPQLDSDGTYFVYSKLSVDRSHWQRGNTYTCSVSHEALHVHHTQKSLTQSPGK ?
Result string: 1
